Where these numbers come from: patent US20240117334A1

- measured target: Human Factor B (human) (UniProt P00751)
- Sequence (P00751 26-764 limits assumed): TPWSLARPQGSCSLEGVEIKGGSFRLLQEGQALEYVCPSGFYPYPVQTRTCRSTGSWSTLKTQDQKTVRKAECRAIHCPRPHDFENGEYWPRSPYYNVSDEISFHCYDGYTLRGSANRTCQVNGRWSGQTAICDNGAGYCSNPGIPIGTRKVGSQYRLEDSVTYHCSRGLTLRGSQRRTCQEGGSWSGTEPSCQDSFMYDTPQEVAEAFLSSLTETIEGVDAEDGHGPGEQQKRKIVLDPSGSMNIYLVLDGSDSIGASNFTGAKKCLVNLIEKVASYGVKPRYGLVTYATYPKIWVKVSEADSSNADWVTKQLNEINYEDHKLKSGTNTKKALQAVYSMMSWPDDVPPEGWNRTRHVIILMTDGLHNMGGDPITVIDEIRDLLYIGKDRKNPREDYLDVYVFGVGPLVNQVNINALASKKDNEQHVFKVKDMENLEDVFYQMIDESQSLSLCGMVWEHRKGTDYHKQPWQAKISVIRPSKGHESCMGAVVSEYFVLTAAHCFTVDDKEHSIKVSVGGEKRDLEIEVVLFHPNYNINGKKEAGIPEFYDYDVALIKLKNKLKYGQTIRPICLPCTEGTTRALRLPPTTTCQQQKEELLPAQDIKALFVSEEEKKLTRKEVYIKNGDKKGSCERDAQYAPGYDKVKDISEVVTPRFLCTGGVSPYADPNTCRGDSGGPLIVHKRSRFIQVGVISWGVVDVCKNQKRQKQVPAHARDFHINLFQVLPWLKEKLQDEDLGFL
- test name: cell-based or functional assay
experimental readout: fB Cleavage EC50 (nM)
Provide the reading as a plain figure in nM.

{"columns": ["binder", "fB Cleavage EC50, nM"],
 "data": [
  ["chymase C22S/V138T/A190S/V213A/A226R (enzyme) IIGGTESKPHSRPYMAYLEIVTSNGPSKFCGGFLIRRNFVLTAAHCAGRSITVTLGAHNITEEEDTWQKLEVIKQFRHPKYNTSTLHHDIMLLKLKEKASLTLAVGTLPFPSQFNFVPPGRMCRTAGWGRTGVLKPGSDTLQEVKLRLMDPQACSHFRDFDHNLQLCVGNPRKTKSSFKGDSGGPLLCAGVAQGIASYGRSDAKPPRVFTRISHYRPWINQILQAN", 6710]
]}

## Input Requested field: fB Cleavage EC50. Item: chymase C22S/F41G/L99H/F173Y/Y215K/A226R (enzyme) IIGGTESKPHSRPYMAYLEIVTSNGPSKGCGGFLIRRNFVLTAAHCAGRSITVTLGAHNITEEEDTWQKLEVIKQFRHPKYNTSTHHHDIMLLKLKEKASLTLAVGTLPFPSQFNFVPPGRMCRVAGWGRTGVLKPGSDTLQEVKLRLMDPQACSHYRDFDHNLQLCVGNPRKTKSAFKGDSGGPLLCAGVAQGIVSKGRSDAKPPRVFTRISHYRPWINQILQAN
## Output 6650

## Input What value of fB Cleavage EC50 has been recorded for this entry: chymase C22S/P38Q/K40A/F41R/L99H/V138I/F173Y/D175N/A190S/V213A/S218L/A226R (enzyme) IIGGTESKPHSRPYMAYLEIVTSNGQSARCGGFLIRRNFVLTAAHCAGRSITVTLGAHNITEEEDTWQKLEVIKQFRHPKYNTSTHHHDIMLLKLKEKASLTLAVGTLPFPSQFNFVPPGRMCRIAGWGRTGVLKPGSDTLQEVKLRLMDPQACSHYRNFDHNLQLCVGNPRKTKSSFKGDSGGPLLCAGVAQGIASYGRLDAKPPRVFTRISHYRPWINQILQAN
## Output 139
